Read-out: Interleukin-1 alpha (IL1a), IL1A (gene 3552)
assay.overview: BSK_LPS_IL1a: BioMAP Diversity Plus: LPS Assay for Interleukin-1 alpha (IL1a) Biomarker Activity (AID 2283080)
conditions.used: primary human HUVEC with PBMC; actives raise or lower the signal
Calls of active or inactive are those of the source. The calls were made as follows: active = hit-call score of the fitted dose curve at least 0.9, where 1 is the maximum; inactive = score below 0.9.
Assign a class; possible classes are y for active, n for inactive

Field: example entries. Status: answers known.
Q: Recorded call for COc1ccc2nc(N)sc2c1 ?
A: n

Q: Recorded call for O=Nc1ccc(O)cc1 ?
A: n

Now, please, on to the next compound.
Q: Recorded call for COCc1c(C(C)C)nc(C(C)C)c(/C=C/[C@@H](O)C[C@@H](O)CC(=O)O)c1-c1ccc(F)cc1 ?
A: y
